Measured hepatocyte CLint at 1 μM accompanies every entry in the list below.
assay: Metabolic Stability in Human Hepatocytes; assay type: in vitro ADME; details: cryopreserved human hepatocytes, 37° C.
Just the number please, in µL/min/1e6 cells, no unit attached.

Worked examples follow.
# compound, hepatocyte CLint at 1 μM (µL/min/1e6 cells)
records = [
    ("COc1ccc([C@@]23CCC(OP(=O)(O)OCOC(=O)C(C)(C)C)=C[C@@H]2N(C)CC3)cc1OC", 1.1),
    ("COc1ccc([C@@]23CCC(OP4(=O)OCCCO4)=C[C@@H]2N(C)CC3)cc1OC", 3.9),
    ("COc1ccc([C@@]23CCC(OP4(=O)OC(C)CC(C)O4)=C[C@@H]2N(C)CC3)cc1OC (stereo partly drawn)", 24.4),
    ("COc1ccc([C@@]23CCC(OP4(=O)OCC(C)(C)CO4)=C[C@@H]2N(C)CC3)cc1OC", 4.2),
    ("COc1ccc([C@@]23CCC(OP(=O)(OC(C)C)OC(C)C)=C[C@@H]2N(C)CC3)cc1OC", 59.4),
]

Problem: Need hepatocyte CLint at 1 μM, item COc1ccc([C@@]23CCC(OP(=O)(O)OCOC(=O)C(C)C)=C[C@@H]2N(C)CC3)cc1OC
Result: 6.4

* * *

assay: Plasma Stability Assay (Example A3), human plasma; format: in vitro ADME; conditions: prodrug remaining, 10 μM, 37° C., 10 min
experimental readout: Human Plasma Prodrug (%)
I only need the number, in %, no unit after it.

A selection of reference data follows.
# smiles text, experimental readout, reading unit, observed result
data = [
    ("COc1ccc([C@@]23CCC(OP(=O)(O)OCOC(=O)C(C)C)=C[C@@H]2N(C)CC3)cc1OC", "Human Plasma Prodrug (%)", "%", 94.2),
    ("COc1ccc([C@@]23CCC(OP4(=O)OCC(C)(C)CO4)=C[C@@H]2N(C)CC3)cc1OC", "Human Plasma Prodrug (%)", "%", 86.9),
]

Problem: State the recorded Human Plasma Prodrug (%) for this entry: COc1ccc([C@@]23CCC(OP4(=O)OCCCO4)=C[C@@H]2N(C)CC3)cc1OC
Result: 89.4

Problem: Could you tell me which Human Plasma Prodrug (%) is on file for COc1ccc([C@@]23CCC(OP(=O)(O)OCOC(=O)OC(C)C)=C[C@@H]2N(C)CC3)cc1OC ?
Result: 96.3

* * *

assay: Plasma Stability Assay (Example A3), rat plasma; type: in vitro ADME; settings: prodrug remaining, 10 μM, 37° C., 10 min
experimental readout: Rat Plasma Prodrug (%)

Problem: Report Rat Plasma Prodrug (%) for COc1ccc([C@@]23CCC(OP4(=O)OCC(C)(C)CO4)=C[C@@H]2N(C)CC3)cc1OC please.
Result: >99%

Problem: Would you mind telling me what Rat Plasma Prodrug (%) value was observed for COc1ccc([C@@]23CCC(OP4(=O)OCCCO4)=C[C@@H]2N(C)CC3)cc1OC ?
Result: >99%

Problem: Please report the recorded Rat Plasma Prodrug (%) for COc1ccc([C@@]23CCC(OP4(=O)OC(C)CC(C)O4)=C[C@@H]2N(C)CC3)cc1OC (stereo partly shown) .
Result: >99%

Problem: Sample COc1ccc([C@@]23CCC(OP(=O)(OC(C)C)OC(C)C)=C[C@@H]2N(C)CC3)cc1OC — what was its Rat Plasma Prodrug (%)?
Result: 74.0%

Problem: Data request, read-out Rat Plasma Prodrug (%), for COc1ccc([C@@]23CCC(OP(=O)(O)OCOC(=O)C(C)C)=C[C@@H]2N(C)CC3)cc1OC
Result: 63.8%

Problem: Would you mind telling me what Rat Plasma Prodrug (%) value was observed for COc1ccc([C@@]23CCC(OP(=O)(O)OCOC(=O)OC(C)C)=C[C@@H]2N(C)CC3)cc1OC ?
Result: 63.0%

Problem: Fill in the blank: the reported Rat Plasma Prodrug (%) of COc1ccc([C@@]23CCC(OP(=O)(O)OCOC(=O)C(C)(C)C)=C[C@@H]2N(C)CC3)cc1OC is ____.
Result: 89.9%
